Reference for the values: patent US20230176070A1

# target.of.assay: glutathione S-transferase [GST: P08515]
# Sequence (P08515 whole entry): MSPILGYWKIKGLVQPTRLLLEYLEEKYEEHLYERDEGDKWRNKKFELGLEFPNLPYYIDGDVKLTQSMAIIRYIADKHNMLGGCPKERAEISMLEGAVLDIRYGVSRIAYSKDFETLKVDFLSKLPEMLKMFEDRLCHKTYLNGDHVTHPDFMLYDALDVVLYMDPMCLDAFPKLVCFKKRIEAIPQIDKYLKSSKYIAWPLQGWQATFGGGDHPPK
# measurement.description: indirect ELISA, GST coated
assay.endpoint: ELISA affinity (LogIC50 (oD450nm))
Format: numeric value only, no unit, no commentary.

Examples from the recorded data:
{"binder": "G53 (VHH) VHH: HVQLVESGGGLVQAGGSLRLSCVASGFTYSTYTMGWFRQAPGKEREIVAAKNWSGARIYYTESVKGRFTISRDSGSNTMYLQMDSLKPEDTAVYYCAARLTWTDTTTPTTYPYWGQGTQVTVSS", "ELISA affinity (LogIC50 (oD450nm))": 5.37}
{"binder": "G42 (VHH) VHH: HVQLVESGGGFVQAGGSLRLSCEASGRTFNVYTMGWFRQAPGKEREFVGSISWNGGSTYYADSVKGRFTISRDNAKNTVYLQMNSLEPEDTAVYYCAARRQSHLRLDLSVIDAWGKGTQVTVSS", "ELISA affinity (LogIC50 (oD450nm))": 2.63}
{"binder": "G80 (VHH) VHH: QVQLVESGGGLVQAGASLRLSCAASRGTFSSYTMGWFRQAPGKERLFVASISRDGGTTYYADSVKGRFTISRDNAENILYLQMNSLKPEDTAVYYCAAASRHPSTWEVWGLEYYYWGQGTQVTVSS", "ELISA affinity (LogIC50 (oD450nm))": 4.43}
{"binder": "G54 (VHH) VHH: QVQLVESGGGLVKPGESLKLSCVASGETLSSYIMGWFRQAPGKEREFVAAVSWSGNQQDYADSVKGRFTISRDNAEKTVDLQMNSLNPEDTAVYYCAGDQIGFWSSRTQAHEYEYWGQGTQVTVSS", "ELISA affinity (LogIC50 (oD450nm))": 1.54}
{"binder": "G90 (VHH) VHH: DVQLVESGGGLVQAGGSLRLSCAASGLTFSNYAMGWFRQAPGKEREFAAGITWNGGASHYADSVKGRFTISRDNAQNTVYLQMNSLKPEDTAVYYCAARLGSVAYPGLRYDYWGQGTQVTVSS", "ELISA affinity (LogIC50 (oD450nm))": 5.83}

Name the recorded ELISA affinity (LogIC50 (oD450nm)) of the binder listed here: G73 (VHH) VHH: EVQLVESGGGLVQAGGSLRLSCAASGRTFSDDAMAWFRQAPGKEREFVAAISWHPENTFYADSVKGRFTISRDKTKNTEYLQMNSLKPEDTAVYYCAAGPRLEIGDYAQYKYWGQGTQVTVSS
0.955

Name the recorded ELISA affinity (LogIC50 (oD450nm)) of the binder listed here: G68 (VHH) VHH: EVQLVESGGGLVQAGGSLRLSCTASGSIFSVNVMDWYRQAPGKQREFVATITGSGATNYADSVKGRFTISRGSAKNTVYLQMNSLKPDDTAVYYCHNADYREDGYEYDNWGQGTQVTVSS
1.07

Name the recorded ELISA affinity (LogIC50 (oD450nm)) of the binder listed here: G69 (VHH) VHH: QVQLVESGGGLVQAGGSLRLSCVDSGRTFSSNTMGWFRQAPGKDRDFVAAINRSGVITNYADSVKGRFTISRDNAKNTVYLQLNSLKPEDTAVYYCAARAGGWPSQIPVEYDRWGQGTQVTVSS
3.69
